- Tested Target: T1, PCSK9 V domain (450-692 of SEQ ID NO: 3) (human, UniProt Q8NBP7 450-692)
- T1 construct: also called v-domain PCSK9
- T1 chain: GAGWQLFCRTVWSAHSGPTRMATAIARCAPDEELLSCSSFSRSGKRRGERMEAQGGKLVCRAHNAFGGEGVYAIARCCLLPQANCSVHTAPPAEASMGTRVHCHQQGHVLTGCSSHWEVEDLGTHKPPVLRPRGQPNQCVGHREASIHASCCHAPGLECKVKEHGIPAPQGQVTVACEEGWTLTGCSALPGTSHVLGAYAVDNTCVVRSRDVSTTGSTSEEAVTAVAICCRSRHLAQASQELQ
- Assay Notes: domain binding ELISA (coated antibody captures the PCSK9 form; OD650)
Property Label: binding result

>  <Binder>
17C2.1 (antibody, V domains shown, subclone) VH: QVQLVQSGAEVKKPGASVKVSCKASGYSFTSYGISWVRQAPGQGLEWMGWVSAYNGNTNYAQKFQGRVTMTTDTSTSTAYMELRSLRSDDTAVYYCARGYVMDVWGQGTTVTVSS VL: QSALTQPASVFGSPGQSITISCTGTSSDVGAYNSVSWYQQHPGKAPKRMIYEVSNRPSGVSNRFSGSKSGNTASLTISGLQAEDEADYYCSSYTSTNMVFGGGTKLTVL

>  <Result>
no binding

$$$$
>  <Binder>
27E7 (antibody, V domains shown) VH: QVQLVQSGAEVKKPGASLKVSCKASGYSLTSYGISWVRQAPGQGLEWMGWISAYNGNTNYAQKVQGRVTMTTDTSTSTVYMEVRSLRSDDTAVYYCARGYGMDVWGQGTTVTVSS VL: QSALTQPASVSGSPGQSITISCTGTSSDVGGYNSVSWYQQHPGKPPKLMIYEVSNRPSGVSNRFSGSKSGNTASLTISGLQAEDEADYFCSSYTSTSMVFGGGTKLTVL

>  <Result>
no binding

$$$$

The measured values listed here are drawn from patent US20130072665A1.
